- System: CCRF-CEM
- assay procedure: NCI tumour cell line growth inhibition, 48 h
Activity calls are given as the source filed them. Rule as the data show it: active = GI50 up to about 1.1 µM and inactive = higher.
The reply should be one of these categories: active, inactive

# molecule, assigned category
measured = [
    ("COC(=O)c1ccc(NCc2cc(O)ccc2O)cc1O", "active"),
]

Tell me the assay call for Nc1n[n+]2cc(-c3ccccc3)n(CC(=O)c3ccccc3)c2s1 please.
inactive

Next record, please: O=C(/C=C/c1ccccc1Cl)c1ccc(Cl)cc1Cl
inactive

Next record, please: Fc1ccc(Nc2nnc(-c3ccccn3)s2)cc1
inactive

Next record, please: C/C(=N\O)C1CC2C=C(C#N)C1N(Cc1ccccc1)C2 (configuration not stated)
inactive

Next record, please: COc1ccc(C(=O)N=C2N(c3ccccc3)C(=N/c3ccccc3)/C(=N\c3ccccc3)N2c2ccccc2)cc1
inactive

Next record, please: O=C(/C=C/c1ccccc1O)/C=C/c1ccccc1O
active

====

# GI50 per record follows
- Test system: PC-3
- assay procedure: NCI tumour cell line growth inhibition, 48 h
Activity calls are given as the source filed them. Cut-off read from the data, not from the text of the source: active = GI50 up to about 1.1 µM and inactive = higher.

# chemical structure, assay target, GI50
measured = [
    ("O=C(CNCc1ccccc1)Oc1c(Cl)c(Cl)c(Cl)c(Cl)c1Cl", "PC-3", "22.1 µM (inactive)"),
    ("Nc1nc(Cl)c(/C=N\\O)c(NCC2(CO)CC(=O)C2)n1", "PC-3", "80.2 µM (inactive)"),
]

# next compound below
What measured GI50 goes with Oc1nc2nnc(COc3ccc(Cl)cc3Cl)n2nc1Cc1ccccc1 ?
> 100 µM (inactive)

====

- System: CAKI-1
- assay procedure: NCI tumour cell line growth inhibition, 48 h
Calls of active or inactive are those of the source. Cut-off read from the data, not from the text of the source: active = GI50 up to about 1.1 µM and inactive = higher.
assay readout: GI50

What measured GI50 goes with Oc1ccc2oc3c(O)c4ccccc4cc3c2c1 ?
5.32 µM (inactive)

====

- System: SN12C
- assay procedure: NCI tumour cell line growth inhibition, 48 h
Active and inactive are the calls of the source. No stated cut-off is given here; in the data, active = GI50 up to about 1.1 µM and inactive = higher.
The reply should be one of these categories: active, inactive

Tell me the assay call for CC(CC[C@@]1(C)C(=O)CCC2O[C@]21C)[C@H]1C[C@@H](c2ccoc2)OC1=O (some centres undefined) please.
inactive

Next record, please: COC(=O)C(C/C=C(\C)c1ccccc1)C(C)=O (centres undefined)
inactive

Next record, please: O=C1C(c2ccccc2)=C(c2ccccc2)C1(Cl)Cl
inactive

Next record, please: COc1ccc2ccccc2c1C1NC(=O)c2ccccc2N1 (centres undefined)
inactive

Next record, please: CC(=O)Nc1ccc(/C=C(\NC(=O)c2ccccc2)C(=O)NNS(=O)(=O)c2ccc(C)cc2)cc1
inactive

Next record, please: NS(=O)(=O)c1nnc(NC(=S)NC(=O)Nc2ccc(Cl)c(Cl)c2)s1
inactive

Next record, please: O=C(O)CC(O)(C(=O)O)C(O)C(=O)O (centres undefined)
inactive

Next record, please: CC(N)(Cc1c[nH]c2ccccc12)C(=O)O (centres undefined)
inactive

====

- Tested on: RXF 631
- assay procedure: NCI tumour cell line growth inhibition, 48 h
Activity calls are given as the source filed them. Cut-off read from the data, not from the text of the source: active = GI50 up to about 1.1 µM and inactive = higher.
# GI50 per record follows

Field: example entries. Status: answers known.
# molecule, assay readout, endpoint value
data = [
    ("C#CCNC(=O)ON1C(=O)CCC1=O", "GI50", "> 100 µM (inactive)"),
    ("C[N+](C)(C)CC(=O)N/N=C(/Cc1nc2c3c(ccc2nc1O)C(=O)c1ccccc1C3=O)C(=O)Nc1ccc(Cl)c(Cl)c1", "GI50", "76.6 µM (inactive)"),
    ("Cc1ccc(NC(=O)CCc2nnc3s/c(=C\\C=C\\c4ccccc4)c(=O)n23)cc1", "GI50", "> 82.4 µM (inactive)"),
    ("COC(=O)CC(=O)OSc1ccccc1", "GI50", "11.4 µM (inactive)"),
    ("CCCCCCCCOCC(O)COC(=O)CCCCCCC (centres undefined)", "GI50", "> 100 µM (inactive)"),
]

What measured GI50 goes with CC(=O)c1ccc(OCC(O)CO)cc1 (centres undefined) ?
> 100 µM (inactive)

Next record, please: Cc1cc(C)cc(NC(N)=S)c1
> 100 µM (inactive)

Next record, please: C/C(=C1/N=C(c2cc([N+](=O)[O-])ccc2Cl)N(c2cccc(C)c2)C1=O)c1cc2ccccc2oc1=O
> 100 µM (inactive)
